# Tested on: HCT-116
# assay name: NCI tumour cell line growth inhibition, 48 h
The source made the active and inactive calls. Cut-off read from the data, not from the text of the source: active = GI50 up to about 1.1 µM and inactive = higher.
Measured GI50, listed per entry.

Answered examples (2):
>>> observed_result("COP(=O)(/C=C/c1cc(C(=O)OCc2ccccc2)n(S(=O)(=O)c2ccccc2)c1)OC")
"> 100 µM (inactive)"
>>> observed_result("CCCC/C=C1\\CCC(CN2CCCC2)C1=O (stereo not given)")
"14.3 µM (inactive)"

Notebook: `O=C1c2c(Br)sc(Br)c2C(=O)C1(O)O` , GI50 read as 19.7 µM (inactive)

Notebook: `COc1ccc2nc3cc(Cl)ccc3c(Nc3ccccc3-c3ccccc3Nc3c4ccc(Cl)cc4nc4ccc(OC)cc34)c2c1` , GI50 read as 11.7 µM (inactive)

Notebook: `CCOC(=O)NC(=O)c1cn(CCCOC(=O)CCCCCCCCC(=O)OCCCn2cc(C(=O)NC(=O)OCC)c(=O)n(C)c2=O)c(=O)n(C)c1=O` , GI50 read as > 100 µM (inactive)

Notebook: `C/C(=C\CNc1ncnc2c1ncn2CCC(=O)OC(C)(C)C)CO` , GI50 read as > 100 µM (inactive)

Notebook: `CN1B(c2ccccc2)N(C)C(=O)N(C)C1=O` , GI50 read as > 100 µM (inactive)

Notebook: `O=C(/C=C/c1ccc(O)cc1)c1cc(Cl)ccc1O` , GI50 read as 22.6 µM (inactive)

Notebook: Cc1ccc([N+](=O)[O-])cc1S(=O)(=O)Nc1ccc(C2=NOC(c3cccs3)C2)cc1 (stereo not given) , GI50 read as 11.1 µM (inactive)

Notebook: `Cc1ccc(S(=O)(=O)NC(=O)NCCC(=O)O)cc1` , GI50 read as > 100 µM (inactive)

====

Measured GI50, listed per entry.
# System: A549
# assay name: NCI tumour cell line growth inhibition, 48 h
The source made the active and inactive calls. No stated cut-off is given here; in the data, active = GI50 up to about 1.1 µM and inactive = higher.

Answered examples (4):
>>> observed_result("CCN(CC)CCNc1ccc(CO)c2sc3ccccc3c(=O)c12")
"6.85 µM (inactive)"
>>> observed_result("CCOC(OCC)C(CCc1ccccc1)c1c(N)nc(N)[nH]c1=O (stereo not given)")
"54.1 µM (inactive)"
>>> observed_result("Oc1ccc(/C=C/c2cc(O)cc3c2C(c2cc(O)cc(O)c2)C(c2ccc(O)c(O)c2)O3)cc1 (stereo not given)")
"45.6 µM (inactive)"
>>> observed_result("Cc1ccc(C(=O)/C=C2\\Nc3ccccc3S\\C2=N\\CS(=O)(=O)c2ccc(C)cc2)cc1")
"> 10 µM (inactive)"

// moving on: another record for GI50
Notebook: `O=[N+]([O-])c1ccc(N/N=C/CC(O)(C(F)(F)F)C(F)(F)F)c([N+](=O)[O-])c1` , GI50 read as 4.69 µM (inactive)

====

# System: RXF 631
# assay name: NCI tumour cell line growth inhibition, 48 h
Activity calls are given as the source filed them. Cut-off read from the data, not from the text of the source: active = GI50 up to about 1.1 µM and inactive = higher.
attribute measured: GI50

Answered examples (6):
>>> observed_result("Cc1ccc(/C=C/C(=O)c2sc(-c3cccnc3)nc2C)cc1")
"> 100 µM (inactive)"
>>> observed_result("Cc1nc(O)nc(CC(O)(c2ccccc2)c2ccccc2)c1-c1ccccc1")
"> 100 µM (inactive)"
>>> observed_result("Cn1cc2ccccc2c1-c1nc(N)nc(F)n1")
"> 100 µM (inactive)"
>>> observed_result("NCCNc1cccc2ccccc12")
"> 100 µM (inactive)"
>>> observed_result("CCOC(=O)C12CCSC1C1(C#N)C(C#N)=CC2(N=P(c2ccccc2)(c2ccccc2)c2ccccc2)n2c(=O)n(-c3ccccc3)c(=O)n21 (stereo not given)")
"70 µM (inactive)"
>>> observed_result("CCOC(=O)[C@H]1Nc2ccc(OC)cc2C2c3ccccc3CC21 (stereo not given in full)")
"> 100 µM (inactive)"

Notebook: `c1ccc(P(=Nc2ccccc2N=P(c2ccccc2)(c2ccccc2)c2ccccc2)(c2ccccc2)c2ccccc2)cc1` , GI50 read as 1.34 µM (inactive)

Notebook: CNC(=O)NCCCCC(NC(=O)OCc1ccccc1)C(=O)OCc1ccccc1 (stereo not given) , GI50 read as 23.6 µM (inactive)

Notebook: S=C1NC(c2ccccc2)=NC(Cc2ccccc2)(c2ccccc2)N1c1ccccc1 (stereo not given) , GI50 read as > 100 µM (inactive)

Notebook: `O=C(CCc1nnc2s/c(=C\c3ccc4c(c3)OCO4)c(=O)n12)Nc1cc(Cl)ccc1Cl` , GI50 read as > 100 µM (inactive)

====

Consider molecules characterized by their GI50 with HCT-15.
The answer is to be given in µM; state only the numeric part.

Notebook: CCCC/C=C1\CCC(CN2CCCC2)C1=O (stereo unspecified) , GI50 read as 3.13

Notebook: C=C1C(=O)C23C(O)C1CCC2C12CO[C@]3(O)[C@@H](O)C1C(C)(C)CCC2O (stereo partly specified) , GI50 read as 11.9

Notebook: `C#Cc1cc(-c2nc3ccccc3s2)ccc1N` , GI50 read as 17.5

====

# Tested on: COLO 205
# assay name: NCI tumour cell line growth inhibition, 48 h
Counter-ions that a name gives are not always drawn. Activity calls are given as the source filed them. No stated cut-off is given here; in the data, active = GI50 up to about 1.1 µM and inactive = higher.
Measured GI50, listed per entry.

Notebook: CCOC(=O)C(Cc1ccc(OC(=O)c2ccc(OC)cc2OC)cc1)NC(=O)C(F)(F)F (stereo not given) , GI50 read as 18.7 µM (inactive)

Notebook: COc1ccc(Cc2nccc3cc(OC)c(OC)cc23)cc1OC [PAPAVERINE HYDROCHLORIDE] , GI50 read as > 100 µM (inactive)

Notebook: `O=[N+]([O-])c1ccc(-c2nn3c(C45CC6CC(CC(C6)C4)C5)nnc3s2)c(Cl)c1` , GI50 read as > 100 µM (inactive)

Notebook: `O=C1Nc2ccc(S(=O)(=O)O)cc2/C1=C1/Nc2ccc(Br)cc2C1=O` , GI50 read as > 100 µM (inactive)

Notebook: `c1cnc2c(c1)Nc1cnncc1S2` , GI50 read as > 100 µM (inactive)

====

Measured GI50, listed per entry.
# Tested on: UO-31
# assay name: NCI tumour cell line growth inhibition, 48 h
Calls of active or inactive are those of the source. Cut-off read from the data, not from the text of the source: active = GI50 up to about 1.1 µM and inactive = higher.

>>> observed_result("COc1ccc(C2=NN(C(=O)c3ccccc3)C(O)(c3cc(F)c(Cl)cc3Cl)C2)cc1OC (centres undefined)")
"30.9 µM (inactive)"
>>> observed_result("COC(=O)C1C(O)C(C)C(O)C(C)/C=C\\C=C(C)C(=O)Nc2c(C)c(OC(C)=O)c3c(c2O)C(=O)C(C)=C2OCOC(=C23)C(C)=CC(C)(O)C(O)C(C)C1O (centres undefined)")
"72.6 µM (inactive)"
>>> observed_result("O=[N+]([O-])c1ccc2sc(/C=N/c3ccc(O)cc3)cc2c1")
"41 µM (inactive)"

Notebook: C/C(=C\CBr)CCC(Br)C(C)(C)Br (centres undefined) , GI50 read as > 100 µM (inactive)

Notebook: `Cc1c(C(=O)/C=C/c2ccccc2[N+](=O)[O-])[n+]([O-])c2ccccc2[n+]1[O-]` , GI50 read as 18.8 µM (inactive)

Notebook: O=C(C[C@H](NC(=O)OCc1ccccc1)C(=O)NC1Cc2ccccc2OC1=O)OCc1ccccc1 (some centres undefined) , GI50 read as > 100 µM (inactive)

Notebook: `CN(C)CCSc1nccc(-c2cc3ccccc3s2)n1` , GI50 read as 19.1 µM (inactive)

Notebook: `Cc1ccc(C(=O)O)c(/C=C2\Cc3ccc(C)cc3C2=O)c1` , GI50 read as 62.1 µM (inactive)

Notebook: `COC(=O)CC[N+]1=CCC(c2ccccc2)(c2ccccc2)O1` , GI50 read as > 100 µM (inactive)

====

Measured GI50, listed per entry.
# Tested on: NCI-H522
# assay name: NCI tumour cell line growth inhibition, 48 h
Calls of active or inactive are those of the source. Cut-off read from the data, not from the text of the source: active = GI50 up to about 1.1 µM and inactive = higher.

>>> observed_result("CCN(CC)CCNc1ccc(CO)c2sc3ccccc3c(=O)c12")
"4.04 µM (inactive)"
>>> observed_result("CCOC(=O)c1nc(SC)sc1NC(=O)c1ccc(OC)cc1")
"> 100 µM (inactive)"
>>> observed_result("Cc1ccc(S(=O)(=O)Nc2nnc(S(N)(=O)=O)s2)cc1")
"> 100 µM (inactive)"
>>> observed_result("N/N=C(\\C(=O)Nc1ccc(Cl)cc1Cl)C(c1cnc2ccccc2n1)[N+](=O)[O-] (stereo not given)")
"> 100 µM (inactive)"

// moving on: another record for GI50
Notebook: `Cc1cc(S(=O)(=O)Nc2nc(Nc3ccc(Cl)cc3)n[nH]2)c(S)cc1Cl` , GI50 read as 70.5 µM (inactive)

====

# Test system: PC-3
# assay name: NCI tumour cell line growth inhibition, 48 h
The source made the active and inactive calls. Rule as the data show it: active = GI50 up to about 1.1 µM and inactive = higher.
Classes to choose from: label 1 for active, label 0 for inactive

Worked examples, 8 compounds total:
>>> class_assignment("CC1=C/C(=N/N2C(=O)/C(=C/c3ccc(Cl)cc3)N=C2c2ccccc2)CC(C)(C)C1")
"label 0"
>>> class_assignment("COC(=O)C1C(O)C(C(=O)OC)C(C)N(C)C1C (stereo unspecified)")
"label 0"
>>> class_assignment("COc1cccc2c1OC1c3ccccc3OCC1(O)C2 (stereo unspecified)")
"label 0"
>>> class_assignment("NC(CNO)C(=O)O (stereo unspecified)")
"label 0"
>>> class_assignment("O=C1N/C(=N/N=C/C(O)C(O)C(O)C(O)CO)N/C1=C\\c1c[nH]c2ccccc12 (stereo unspecified)")
"label 0"
>>> class_assignment("N#Cc1[nH]c(=O)n(-c2ccccc2)c1N")
"label 0"
>>> class_assignment("CC(=O)Nc1ccc(CNc2cc(=O)n(C)c(=O)[nH]2)cc1")
"label 0"
>>> class_assignment("CC(=O)c1c(O)nnc(-c2ccc(Cl)cc2)c1-c1ccc(Cl)cc1")
"label 0"

[Q] Test call, this compound: `C(=N\Nc1nnc2c(n1)[nH]c1ccccc12)/c1cccnc1`
[A] label 0

[Q] Test call, this compound: `CCOC(=O)Nc1cc2c(c(N)n1)N=C(c1ccc3ccccc3c1)CN2`
[A] label 1

[Q] Test call, this compound: CCOC(=O)C1C2C1C1C(C(=O)OCC)C21 (stereo unspecified)
[A] label 0
